Reference source for all entries: ChEMBL document CHEMBL1153999

Tested on: Rattus norvegicus
Assay: Antihyperglycemic activity in Sprague-Dawley rat assessed as inhibition of streptozotocin-induced increase in blood glucose level at 100 mg/kg, po after 24 hrs
Format: functional
Set-up: scale not given: the % may be the effect or the level left
The label is 1.0 for Activity below 30% and 0.0 for Activity equal to or exceeding 30%.

Problem: Identify whether the compound COc1ccc(-c2c(C#N)c(N)c(C#N)c(SC)c2-c2ccccc2)cc1 records Activity below 30%.
Solution: 0.0

Problem: Activity under 30%? Item: CN(C)C(=N)NC(=N)N [METFORMIN]
Solution: 1.0

Problem: Is 30% strictly greater than the compound's reported Activity? compound: COc1ccc(-c2c(C#N)c(N)c(C#N)c(SC)c2-c2ccc(OC)cc2)cc1
Solution: 1.0

Problem: Determine whether this compound shows Activity lower than 30% (ties excluded): CSc1c(C#N)c(N)c(C#N)c(-c2ccccc2)c1-c1ccccc1
Solution: 1.0

Problem: A record lists COc1ccc(-c2c(C#N)c(N)c(C#N)c(SC)c2-c2ccc(F)cc2)cc1 . Is its Activity below 30%?
Solution: 1.0
